# Test system: XF 498 CNS
# Protocol notes: NCI tumour cell line growth inhibition, 48 h
I'd appreciate it if you could supply TGI values for the items below.

INSERT INTO assay_data (compound, reported) VALUES
  ('c1cncc(C2c3[nH]c4ccccc4c3CCN2CCN2CCCCC2)c1 (stereo unspecified)', '> 100 µM'),
  ('CCCN(CCC)c1c([N+](=O)[O-])cc(S(N)(=O)=O)cc1[N+](=O)[O-]', '30.2 µM'),
  ('CCOC(=O)C(=O)Nc1c(C)cccc1CC', '> 100 µM');

// each compound listed below needs its TGI
1. CCCc1ccc(N=Cc2cc(OC)c(OC)c(OC)c2)cc1
2. COc1ccc(/C=[N+](\[O-])[C@H](COCc2ccccc2)c2ccccc2)cc1
3. CC[C@@]1(OC(=O)CCC(=O)O)C(=O)OCc2c1cc1n(c2=O)Cc2cc3ccccc3nc2-1
4. COC(=O)/C(=N/NC(C)(C)C)C(C(=O)C=C(C)C)C(=O)C(=O)Nc1ccc(Cl)cc1C (stereo unspecified)
5. CCCCS(=N)(=O)CC[C@H](N)C(=O)O (stereo partly specified)
6. Cn1c2ccccc2n2c3nc4ccccc4nc3c(C#N)c12
7. CCOC(OC1=C(C#N)CCC1)C(CC)[Se]c1ccccc1 (stereo unspecified)
8. CCOC(=O)/C=C(/CN1C(=O)c2ccccc2C1=O)c1ccccc1

1: > 100 µM; 2: > 100 µM; 3: 5.38 µM; 4: > 100 µM; 5: 604 µM; 6: > 100 µM; 7: 49.7 µM; 8: > 100 µM

Cited source: PubChem BioAssay (NCI)
